Below: a set of entries, each annotated with reported protein stability index.
B1: TRIM29 (parent)
chain: FAEKGELRKSIFSESRKPTVSIME

Variants of: B1
ASSAY NOTES: protein stability index of a GFP-peptide fusion (GPS, HEK-293T) (PSI 1-6); higher = more stable;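 also: lentivirally expressed fusions sorted by FACS into six bins by GFP to DsRed ratio, PSI derived from sequencing read proportions per bin multiplied by bin number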
MEASUREMENT SETUP: c terminus: a fixed tail appended
Just the number, please, no unit attached.

// below: answered variants
FAEKGELRKSIFSESRKPTVSIWE [M23W]: 2.21
FAEKGELRKSIFSESCKPTVSIME [R16C]: 1.69
FAEKGELRKHIFSESRKPTVSIME [S10H]: 1.84
FAEKGELRKSIFSKSRKPTVSIME [E14K]: 1.99
FAEKGELRKSIFSESWKPTVSIME [R16W]: 2.29

Now let's try a different one.
Input: Provide only the value of recorded protein stability index for FAEKGELRKSIFSEDRKPTVSIME [S15D]
Output: 2.26

Origin of values: the supplement of paper PMC10567573
